# assay system: Phosphatidylinositol 4,5-bisphosphate 3-kinase catalytic subunit beta isoform (Homo sapiens)
# Sequence (P42338 whole entry, canonical isoform): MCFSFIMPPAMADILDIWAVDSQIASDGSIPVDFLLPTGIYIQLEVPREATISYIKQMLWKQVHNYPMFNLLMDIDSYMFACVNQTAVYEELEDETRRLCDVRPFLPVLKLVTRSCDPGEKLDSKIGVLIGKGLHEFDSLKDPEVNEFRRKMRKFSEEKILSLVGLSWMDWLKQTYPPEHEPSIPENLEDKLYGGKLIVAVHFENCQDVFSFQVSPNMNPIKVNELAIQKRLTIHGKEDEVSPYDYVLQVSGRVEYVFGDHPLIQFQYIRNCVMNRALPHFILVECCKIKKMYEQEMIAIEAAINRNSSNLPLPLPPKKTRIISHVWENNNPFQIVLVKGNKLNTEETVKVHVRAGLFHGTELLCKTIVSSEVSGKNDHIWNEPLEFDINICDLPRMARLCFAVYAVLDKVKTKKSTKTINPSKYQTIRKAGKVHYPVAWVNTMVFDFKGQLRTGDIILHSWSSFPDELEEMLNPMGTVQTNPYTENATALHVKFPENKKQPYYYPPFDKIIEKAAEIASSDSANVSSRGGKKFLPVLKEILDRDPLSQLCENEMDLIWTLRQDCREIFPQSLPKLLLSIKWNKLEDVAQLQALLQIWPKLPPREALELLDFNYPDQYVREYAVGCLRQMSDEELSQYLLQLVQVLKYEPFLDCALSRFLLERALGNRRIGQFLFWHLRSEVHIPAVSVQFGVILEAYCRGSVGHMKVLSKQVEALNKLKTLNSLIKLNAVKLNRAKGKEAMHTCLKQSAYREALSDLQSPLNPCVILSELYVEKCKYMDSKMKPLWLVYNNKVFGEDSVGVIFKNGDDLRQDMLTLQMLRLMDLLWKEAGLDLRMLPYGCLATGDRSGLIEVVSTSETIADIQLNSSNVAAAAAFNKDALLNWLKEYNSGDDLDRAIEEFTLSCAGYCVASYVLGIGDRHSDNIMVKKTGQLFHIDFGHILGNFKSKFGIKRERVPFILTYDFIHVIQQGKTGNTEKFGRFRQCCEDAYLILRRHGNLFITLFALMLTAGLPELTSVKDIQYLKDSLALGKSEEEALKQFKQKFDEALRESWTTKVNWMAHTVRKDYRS
# experiment description: Binding affinity to human PI3Kbeta after 1 hr by KINOMEscan assay
reported property: Kd (nM)
// return numeric value only (unit: nM, not printed)

Please look up its Kd: CO/C=C/C(=O)c1cc2c3c(c(N)cc(NC(=O)C(C)C)c3n1)N=C2 5.7

* * *

# assay system: Phosphatidylinositol 4,5-bisphosphate 3-kinase catalytic subunit alpha isoform (Homo sapiens)
# Sequence (P42336 whole entry, canonical isoform): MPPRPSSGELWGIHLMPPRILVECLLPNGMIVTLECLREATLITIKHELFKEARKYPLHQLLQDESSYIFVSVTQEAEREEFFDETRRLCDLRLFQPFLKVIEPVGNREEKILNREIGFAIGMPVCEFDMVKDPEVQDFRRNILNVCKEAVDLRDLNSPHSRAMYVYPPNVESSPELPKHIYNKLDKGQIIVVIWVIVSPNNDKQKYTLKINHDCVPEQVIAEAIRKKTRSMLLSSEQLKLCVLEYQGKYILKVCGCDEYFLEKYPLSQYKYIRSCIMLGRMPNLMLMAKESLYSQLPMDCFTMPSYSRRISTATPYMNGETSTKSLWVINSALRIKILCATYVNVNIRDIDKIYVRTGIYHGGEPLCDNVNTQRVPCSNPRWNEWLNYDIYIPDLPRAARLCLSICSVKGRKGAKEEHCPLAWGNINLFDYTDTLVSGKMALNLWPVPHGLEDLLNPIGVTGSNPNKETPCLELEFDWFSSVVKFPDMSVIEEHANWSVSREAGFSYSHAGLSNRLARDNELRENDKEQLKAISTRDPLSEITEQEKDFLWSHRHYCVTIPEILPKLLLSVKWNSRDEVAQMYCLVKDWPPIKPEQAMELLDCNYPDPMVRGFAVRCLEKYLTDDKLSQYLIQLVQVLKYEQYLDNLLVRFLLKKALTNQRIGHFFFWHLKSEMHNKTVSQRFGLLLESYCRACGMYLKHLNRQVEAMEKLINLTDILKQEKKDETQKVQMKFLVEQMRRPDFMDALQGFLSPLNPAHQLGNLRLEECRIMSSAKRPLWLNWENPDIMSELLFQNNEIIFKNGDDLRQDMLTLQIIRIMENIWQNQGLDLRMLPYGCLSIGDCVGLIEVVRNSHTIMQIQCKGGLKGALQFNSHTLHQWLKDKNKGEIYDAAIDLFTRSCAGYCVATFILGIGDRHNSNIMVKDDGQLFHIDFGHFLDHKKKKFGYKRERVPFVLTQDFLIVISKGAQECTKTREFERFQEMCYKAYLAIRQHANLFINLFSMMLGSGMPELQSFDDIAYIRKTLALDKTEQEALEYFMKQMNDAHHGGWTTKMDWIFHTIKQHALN
# experiment description: Binding affinity to human PI3Kalpha after 1 hr by KINOMEscan assay
reported property: pKd
Entry type: numeric. Quantity: pKd, the -log10 of concentration in molar units.

So what does the record say about pKd for CO/C=C/C(=O)c1cc2c3c(c(N)cc(NC(=O)C(C)C)c3n1)N=C2 ? 9.06
